Just for reference, patent US6528487B1 is where these values come from.

- Target or test system: GMP-140 receptors on the surface of leukocytes (human)
- Measurement protocol: neutrophil adhesion to GMP-140 coated wells, peptide preincubated with neutrophils, myeloperoxidase read-out
Non-standard residues stand in square brackets, D forms with d. No end group written: not given here.
Metric: percent inhibition of neutrophil binding to GMP-140 at 1.0 mM peptide (%)

R[dK]IGGIWTWV-NH2 (N-terminus assumed; SMILES CC[C@H](C)[C@H](NC(=O)CNC(=O)CNC(=O)[C@@H](NC(=O)[C@@H](CCCCN)NC(=O)[C@@H](N)CCCNC(=N)N)[C@@H](C)CC)C(=O)N[C@@H](Cc1c[nH]c2ccccc12)C(=O)N[C@H](C(=O)N[C@@H](Cc1c[nH]c2ccccc12)C(=O)N[C@H](C(N)=O)C(C)C)[C@@H](C)O) [RkIGGIWTWV-NH2] : 97
RKIGGIWTWV-NH2 : 105
RKNNKTW-NH2 [RKNNKTW-NH2] : 99
YKNNKTWTWV-NH2 : 104
